Catalogue of molecules with associated Activity
system: Athalia rosae ruficornis; assay: Pharmacophagous feeding stimulant activity in Athalia rosae ruficornis assessed as insect fed on paper for more than 10 seconds at 10^-6 g/filter paper; assay type: functional

MOLECULE: C/C=C(\C)C(=O)O[C@@H](C[C@@]1(C)[C@H](C)C[C@H](OC(C)=O)[C@]2(COC(C)=O)[C@@H]1[C@H](OC(=O)[C@@H](C)CC)CC[C@]21CO1)C1=CC(=O)OC1 [AJUGAMARIN H1]
Activity: <10%

MOLECULE: CC[C@H](C)C(=O)O[C@H]1CC(=O)[C@@H]2[C@@](C)(CCC3=CC(=O)OC3)[C@H](C)C[C@H](OC(C)=O)[C@@]2(COC(C)=O)[C@@]12CO2 [AJUGAREPTANSONE A]
Activity: <10%

MOLECULE: CC(=O)OC[C@@]12[C@@H](OC(C)=O)C=C(C)[C@](C)([C@@H]3C[C@H]4C=CO[C@H]4O3)[C@H]1C[C@@H](O)[C@H](OC(=O)C(C)(C)OC(C)=O)[C@]21CO1 [CLERODENDRIN E]
Activity: 10%

MOLECULE: C/C=C(\C)C(=O)O[C@@H]1CC[C@]2(CO2)[C@]2(COC(C)=O)[C@@H](OC(C)=O)C[C@@H](C)[C@](C)(C[C@H](O)C3=CC(=O)OC3)[C@@H]12 [AJUGAMARIN A1]
Activity: <10%

MOLECULE: CC[C@H](C)C(=O)O[C@@H](C[C@@]1(C)[C@H](C)C[C@H](OC(C)=O)[C@]2(COC(C)=O)[C@@H]1[C@H](OC(=O)[C@@H](C)CC)CC[C@]21CO1)C1=CC(=O)OC1 [AJUGATAKASIN B]
Activity: <10%
